For each record, write down the corresponding In vitro binding affinity (relative to reference peptide HIV pol 589-597).
measured on: T1, HLA-A*0201 molecule on human T2 cells (human)
T1 construct: read out with anti-HLA-A2 antibody BB7.2-PE; also called HLA-A2
protocol notes: T2 cells expressing HLA-A*0201, anti-HLA-A2-PE, FACS (Example 7)
// no unit, no text: just the number

# lookup: In vitro binding affinity (relative to reference peptide HIV pol 589-597) of FLPFGFILV [IL13RA2-B]
0.49

Entry FLPFGFILM [peptide 1F9M] please
2.62

Entry ILPFGFILA [peptide 1I9A] please
2.22

Entry ALPFGFILV [comparative peptide 1A9V] please
3.06
